# Tested on: PPARa:RXRa (NR concentration 270 nM, RXRa partner concentration 90 nM)
# METHOD_DESCRIPTION: PBM binding z-score (relative to random genomic background probes); higher = stronger binding; sequences stand for … in GC…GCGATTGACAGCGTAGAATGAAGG
Param threshold (4) applies to PBM binding z-score; output true when value >= threshold, false when value < threshold.

Asked: Hello, I need to know if ACTAGCAGGCCAATTTTGGGTCACTCAAACAAAG has measured PBM binding z-score not below 4. Thanks!
Given back: false

Asked: hey, is PBM binding z-score for this one >= 4? CCTTCCGGGTCACTGACAGGTTATAGCATTTGGA
Given back: true

Asked: Check if PBM binding z-score >= 4 (inclusive). Item: TCGAGTAGGTTGCCAATGGGGCATTCAGCTTTCT
Given back: false

Asked: Hello, I need to know if GGAACGAGGGCAATTTGATAGCAGAGTTTGATGG has measured PBM binding z-score not below 4. Thanks!
Given back: false

Asked: Item GCTGTTAGGTCAACTGATGGTCAGCTAAAGCTCG with PBM binding z-score of 4 or above?
Given back: false

Asked: Textbook exercise: given the entry CCTAGTTGGTCACGGTCACACACGCTATAGGTAC , state whether its PBM binding z-score is greater than or equal to 4.
Given back: false

Asked: hey, is PBM binding z-score for this one >= 4? CGAATGAGGGCATGAGTTGATAGCAAATGCCGAT
Given back: false

Asked: In plain terms: is recorded PBM binding z-score at least 4 for TCATATAGGTAAAAGGTGATAGTCGGTGTGGTAA ?
Given back: true

Asked: Test whether the sequence CGAACTAGGTCATTGACAGGATAGTGAATAGTAA records PBM binding z-score of 4 or higher.
Given back: true

Asked: For this sequence, is measured PBM binding z-score 4 or higher? CCAGACAGGTGAAAGGTAACCCAGTCTGGTACGC
Given back: false

Asked: Does CCTAGCAGGCCAATCTGGGTCACTCAAGGCTTGA have a reported PBM binding z-score of at least 4?
Given back: false

Asked: Determine whether measured PBM binding z-score meets or exceeds 4 for ATCGAAAGGTCGAAGGCGAGTATACCCACCCGAA
Given back: false

Asked: Please check the record GTACCCAGGTGAATAGGTCGTTGATGAGTAGGCG and state if its PBM binding z-score is at or above 4.
Given back: false

Asked: Has ATACGAAGGTGATCGTGAGGTCGTTGATACTAAC a recorded PBM binding z-score greater than or equal to 4?
Given back: false

Asked: Can CGTCCAAGGTTAGCAGGTCAGTGAAAGCGACGTG be said to have PBM binding z-score at or above 4?
Given back: false

Asked: Confirm if PBM binding z-score reported for the sequence TCTGCTGGGTCAGTTGGTCAGCTAACGAGCTGCC is 4 or above.
Given back: false

Asked: Determine whether measured PBM binding z-score meets or exceeds 4 for TCTCGGAGGGCACGAAGGTCAGAGCTTTCCAGAG
Given back: false

Asked: I'd appreciate it if you could say whether CGAACTAGGTCATTAACAGGACAGTGAATAGTAA has PBM binding z-score at least equal to 4.
Given back: true

Asked: Would you say ATCGATAGGTCGAAGGTGAGTATACCCACCCGAA shows PBM binding z-score at minimum 4?
Given back: false

Asked: Check the entry CAAACTAGGTCACGAAACGTCAAAGTCGAATGAC : does PBM binding z-score equal or exceed 4?
Given back: true

Asked: Test whether the sequence TCAAATAGGTAATACAGGTGAAAGTCGGCATCTA records PBM binding z-score of 4 or higher.
Given back: false

Asked: // inclusive: PBM binding z-score at least 4? input: CCGAGTAGGTTATGGGTCATTCAGGCAACGGTGA
Given back: true

Asked: Is reported PBM binding z-score greater than or equal to 4 here: ATATGTAGGTTAGCTGGGGTCATTGAGACTAGGC
Given back: true

Asked: Tell me whether PBM binding z-score is at least 4 here: CCGACTGGGGCAGAAAGGTTACCACACCATCCGG
Given back: false

Asked: Determine whether measured PBM binding z-score meets or exceeds 4 for CGAACTAGTTCAGAACAGGACAGTGAAGGATGAT
Given back: false

Asked: Check the entry CTCGAAAGATCGGTTGAGGTGAGTATACGGATAA : does PBM binding z-score equal or exceed 4?
Given back: false

Asked: # bool: PBM binding z-score of CCGACTGCGGCAAAGGTTACCATACTCAGTACGA >= 4
Given back: false

Asked: Record CCTACTAGGTCATGGTCAGCTAATCTACAGTATG ; criterion: PBM binding z-score no lower than 4. Met?
Given back: true

Asked: Is it the case that CAAACTAGGTCAAAGATCAAAGTCGAGCCAACCA has PBM binding z-score reaching or exceeding 4?
Given back: true

Asked: Is the recorded value of PBM binding z-score equal to or greater than 4 for this sequence? AGAATGAGGTTATACGTTGATCAGGGAAGAAAGT
Given back: false

Asked: Decide: is the reported value of PBM binding z-score for CGTCCATGGTCATAGGAGGTCAGTGAAGACAGAT equal to or greater than 4?
Given back: false

Asked: Is PBM binding z-score for ACTTATGGGTCAACGAGGTTATAGCACGCGTATA at or above 4?
Given back: true

Asked: Would you say CCGACTGGGGCAAAGGGTACCATACTCAGTACGA shows PBM binding z-score at minimum 4?
Given back: false

Asked: Is PBM binding z-score at least 4? Consider GCGACTGGGGCAAAGCAGGTTACCGTAAGGTTGG
Given back: false

Asked: Could you verify whether the entry CCTCGGAGGACAACAGGAGGTCAGAGCAGCCAGA shows PBM binding z-score of no less than 4?
Given back: false

Asked: Assess whether reported PBM binding z-score for CCAGACAGGTGTAAGGTAACTCAGTCTGGTACGC sits at 4 or higher.
Given back: false

Asked: Does the sequence GATACAGGGTCATGGCCAGAGTACGCGTATTGAT have recorded PBM binding z-score that is 4 or more?
Given back: true

Asked: API: above_or_equal(metric=PBM binding z-score, cutoff=4) for item TCGAGTGGGTTAGTCGGGGCATTCAGCCAACATA
Given back: false

Asked: Tell me whether PBM binding z-score is at least 4 here: CGTCCAAGGTCAAGGTAAGTGAAAGAGACTCGAA
Given back: true

Asked: In plain terms: is recorded PBM binding z-score at least 4 for CTTCGGAGGACAGAAGGTCAGAGCTGTCCGCTTT ?
Given back: false

Asked: Quick check, PBM binding z-score >= 4? AGAATGAGGTTATACGTAGTTCAGGGAAGAAAGT
Given back: false

Asked: // inclusive: PBM binding z-score at least 4? input: CAAACTAGGTCACCGGAAGGACAAAGTCCGCATG
Given back: true

Asked: Quick check, PBM binding z-score >= 4? GCTGCTAGGTCTACTGATGGTCAGCTAAAGCTCG
Given back: false

Asked: Is reported PBM binding z-score greater than or equal to 4 here: ACTAGCAGGCCAAGTTTGGGCCACTCAAACAAAG
Given back: false

Asked: Evaluate ATCGAAAGGTCGACGAGGTGACTATACACCGTTT : PBM binding z-score at minimum 4?
Given back: true

----------
# Tested on: RARa:RXR (NR concentration 270 nM, RXRa partner concentration 90 nM)
# METHOD_DESCRIPTION: PBM binding z-score (relative to random genomic background probes); higher = stronger binding; sequences stand for … in GC…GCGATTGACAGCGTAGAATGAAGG
Returns one of 1.0 or 0.0; 1.0 when PBM binding z-score is >= 0.8.

Asked: Threshold query (PBM binding z-score >= 0.8) on AGAGACAGGTGAGTGAAGGTAACTCAGCTGGACG
Given back: 0.0

Asked: For this sequence, is measured PBM binding z-score 0.8 or higher? ATCTCTAGGTAAAGATAGTTAAGTGAATGCAAAT
Given back: 0.0

Asked: Test whether the sequence ACTATTAGTTGAGACTAGGGCAACCGATAGGTTG records PBM binding z-score of 0.8 or higher.
Given back: 0.0

Asked: Tell me whether PBM binding z-score is at least 0.8 here: CCACACAGGTGAGAAGGTAACTCAGCCTCGATTA
Given back: 0.0

Asked: Reported PBM binding z-score reaches at least 0.8 for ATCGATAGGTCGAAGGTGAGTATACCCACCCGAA ?
Given back: 1.0

Asked: # check: PBM binding z-score of CCTGGTAGGTCAATGGTCAGCTAAAGCAGCTCGC is greater than or equal to 0.8
Given back: 1.0

Asked: Dear colleague, could you confirm whether ATCTTTAGGTAACAAGTTCAGTGAAAGAGAGGAC has PBM binding z-score at or above 0.8?
Given back: 1.0

Asked: Is it the case that CGTCGAAGTTCAAGGTAACGTAACAGAAAGCAGC has PBM binding z-score reaching or exceeding 0.8?
Given back: 1.0

Asked: PBM binding z-score >= 0.8 for GCTTACGGGTCAAAGGGTATAGCATGAATAGAAT ?
Given back: 1.0

Asked: Answer whether PBM binding z-score of ACAGACAGGTGATGAAAGTAACTCAGGCTATCAT is greater than or equal to 0.8.
Given back: 0.0

Asked: PBM binding z-score >= 0.8 for AGTCAAAGTTCATCTAGGGAACGTAAGATATGCT ?
Given back: 1.0

Asked: Textbook exercise: given the entry ATACCAAGGTGAACGTGAGGTCGTTGATACTAAC , state whether its PBM binding z-score is greater than or equal to 0.8.
Given back: 1.0

Asked: Is it the case that ACTAGCATGCCAAGTTTGGGTCACTCAAACAAAG has PBM binding z-score reaching or exceeding 0.8?
Given back: 1.0

Asked: Could you verify whether the entry TTACCAAGGTGAAAGATCGTTGATGCACGCCTTG shows PBM binding z-score of no less than 0.8?
Given back: 0.0

Asked: Is it the case that ATCGAAAGGTCGAGGTGTGTATAGAGAAAGGGAA has PBM binding z-score reaching or exceeding 0.8?
Given back: 1.0

Asked: Determine whether this sequence has PBM binding z-score no lower than 0.8: CCAGACAGGTGCGAAGGTAACTCAGCCTCGATTA
Given back: 0.0

Asked: Dear colleague, could you confirm whether TCTTGTAGATCTAGCAGGTTAAGAAAGCCTGAGT has PBM binding z-score at or above 0.8?
Given back: 0.0

Asked: Check this sequence for PBM binding z-score at or above 0.8: CCTACTGGGCCAAAGGTCACTGATTCCAATGCTC
Given back: 1.0

Asked: Check this sequence for PBM binding z-score at or above 0.8: TCTTGTATATCAACAGGAGGTTAAGAAAGATCGA
Given back: 1.0

Asked: PBM binding z-score >= 0.8 for TAGCCTAGGTCAGTCAGGGGCCAGTATAGAAAGC ?
Given back: 1.0

Asked: Quick check: does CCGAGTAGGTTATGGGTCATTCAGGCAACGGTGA have PBM binding z-score greater than or equal to 0.8?
Given back: 1.0

Asked: Check this sequence for PBM binding z-score at or above 0.8: TCGAGTAGGTTACGAATGGGGCATTCAGCTTTCT
Given back: 0.0

Asked: # bool: PBM binding z-score of CGATCGAGGGCATGAGTTGATAGCAAATGCCGAT >= 0.8
Given back: 0.0

Asked: Check if PBM binding z-score >= 0.8 (inclusive). Item: CCTAGTTGGTCATGGTCACACACGCTATAGGTAC
Given back: 0.0

Asked: Threshold query (PBM binding z-score >= 0.8) on GGAACGAGGCCATTCGAGTTGATAGCATGGCGAT
Given back: 0.0

Asked: Textbook exercise: given the entry CAAACTAGGTCAAGGTCGAAGTCGGTTTGTGCCA , state whether its PBM binding z-score is greater than or equal to 0.8.
Given back: 1.0

Asked: Dear colleague, could you confirm whether TCTAGTTGGTCAAACGTCACACACTCGAAATGCG has PBM binding z-score at or above 0.8?
Given back: 1.0

Asked: Does the reported PBM binding z-score for CCTATTAGTTGACCATTAGGGCAACCGAAGCTCG fall at or above the 0.8 mark?
Given back: 0.0

Asked: Please tell me: is the sequence CCTTACGGGTCACTCCGGGTTATAGCATCGGAGT at or over 0.8 in terms of PBM binding z-score?
Given back: 1.0

Asked: Test whether the sequence CGAACTAGGTCAGAACAGGACAGTGATGGATGAT records PBM binding z-score of 0.8 or higher.
Given back: 1.0

Asked: # bool: PBM binding z-score of TAGCCTAGGTCATTGGGCCACTATAGTACGCATC >= 0.8
Given back: 1.0
